Assay system Coagulation factor XI (Homo sapiens); read-out recorded as Ki.
measured endpoint: Ki (nM)

Recorded Ki, per entry:
1) Cc1nc(-c2cccc(Cl)c2F)n(O)c1C(=O)N[C@@H](Cc1ccc(NC(=O)c2ccccn2)cc1)C(=O)Nc1ccc2[nH]c(C(=O)O)cc2c1
155
2) Cc1nc(-c2cccc(Cl)c2F)n(O)c1C(=O)N[C@@H](Cc1ccc(NC(=O)C2CC2C)cc1)C(=O)Nc1ccc2[nH]c(C(=O)O)cc2c1 (some centres undefined)
9
3) Cc1nc(-c2cccc(Cl)c2F)n(O)c1C(=O)N[C@@H](Cc1ccc(Cl)cc1)C(=O)Nc1ccc2[nH]c(C(=O)O)cc2c1
356
4) Cc1nc(-c2cccc(Cl)c2F)n(O)c1C(=O)N[C@@H](Cc1ccc(NC(=O)c2ccccc2)cc1)C(=O)Nc1ccc2[nH]c(C(=O)O)cc2c1
366
5) CC#CC(=O)Nc1ccc(C[C@H](NC(=O)c2c(C)nc(-c3cccc(Cl)c3F)n2O)C(=O)Nc2ccc3[nH]c(C(=O)O)cc3c2)cc1
31
6) Cc1nc(-c2ccccc2C#N)n(O)c1C(=O)N[C@@H](Cc1ccccc1)C(=O)Nc1ccc(C(=O)O)cc1
18900

(A) COc1ccc(-c2nc(C)c(C(=O)O)n2O)cc1C#N
(B) Cc1nc(-c2cccc(Cl)c2)n(O)c1C(=O)N[C@@H](Cc1ccccc1)C(=O)Nc1ccc(C(=O)O)cc1
(C) Cc1nc(-c2cccc(Cl)c2F)n(O)c1C(=O)N[C@@H](Cc1ccc(NC(=O)C2CCCCC2)cc1)C(=O)Nc1ccc2[nH]c(C(=O)O)cc2c1
(D) Cc1nc(-c2cccc(Cl)c2F)n(O)c1C(=O)N[C@@H](Cc1ccc(NC(=O)CC(C)C)cc1)C(=O)Nc1ccc2[nH]c(C(=O)O)cc2c1
(E) Cc1nc(-c2cccc(Cl)c2F)n(O)c1C(=O)N[C@@H](Cc1ccc(NC(=O)c2ncccn2)cc1)C(=O)Nc1ccc2[nH]c(C(=O)O)cc2c1
Query :: Sort the compounds on Ki; start with the lowest figure. // respond by listing labels in the order requested
Result :: D, C, E, B, A
(D: 26 nM, C: 56.3 nM, E: 81.3 nM, B: 14500 nM, A: 243000 nM)
